Reported TGI values are given for each entry in this list.
# Test system: HL-60(TB) leukemia
# protocol-description: NCI tumour cell line growth inhibition, 48 h
assay-readout: TGI

molecule: C[C@]12CC[C@H]3[C@@H](CC=C4C[C@@H](O)CC[C@@]43C)[C@@H]1C/C(=C/c1ccccc1)[C@@H]2O
observed-value: > 100 µM

molecule: COc1cc2ncnc(Nc3cccc(Cl)c3F)c2cc1OC(=O)N1CCN(C)C[C@H]1C
observed-value: > 70.5 µM

molecule: C/C(CC(=O)Nc1cc(C)ccc1C)=N/N=C(N)N
observed-value: > 100 µM

molecule: COC(=O)C1=COC(OC2OC(CO)C(O)C(O)C2O)C2C3CN4CCc5c([nH]c6ccccc56)C4(CC12)O3 (stereo not given)
observed-value: > 100 µM

molecule: Cc1nc(-c2nc(-c3ccc(OC(F)(F)F)cc3)no2)nn1Cc1cccc(N2CCC(S(C)(=O)=O)CC2)c1
observed-value: > 49.5 µM

###

Reported TGI values are given for each entry in this list.
# Test system: NCI-H23 lung
# protocol-description: NCI tumour cell line growth inhibition, 48 h
assay-readout: TGI

compound: N#Cc1cc([N+](=O)[O-])ccc1NC(=O)/C(=N\NC(=O)c1ccncc1)C(c1cnc2ccc([N+](=O)[O-])cc2n1)[N+](=O)[O-] (stereo unspecified)
assay-readout: TGI
observed-value: 2.65 µM
//
compound: CCc1nc(N)nc(N)c1-c1ccc2nnn(O)c2c1
assay-readout: TGI
observed-value: > 100 µM
//
compound: CN1CCC2(CC1)NC(=O)c1c(c3ccc(Cl)c(Cl)c3n1C)C2C#N (stereo unspecified)
assay-readout: TGI
observed-value: 25.7 µM
//
compound: CC1(Br)CC2OC3(Br)C=CC(C)(O)C2(CC1=O)C3(C)C (stereo unspecified)
assay-readout: TGI
observed-value: > 100 µM
//
compound: CCOP12(OCC)NC(=O)OC1(C(F)(F)F)c1ccccc1O2 (stereo unspecified)
assay-readout: TGI
observed-value: > 100 µM
//
compound: Cc1ccc(C(c2c(O)c3ccccc3n(-c3ccccc3)c2=O)c2c(O)c3ccccc3n(-c3ccccc3)c2=O)cc1
assay-readout: TGI
observed-value: > 100 µM

###

# Tested on: OVCAR-8 ovarian
# protocol-description: NCI tumour cell line growth inhibition, 48 h; in the data active = GI50 below about 0.43 µM; inactive = the rest
Where a SMILES comes first, the peptide text is derived from it. Bridges are numbered along the chain shown (N, C = ends). [ ]: non-standard residue; d: D form. The star is where a group is joined. ξ: configuration not given here. ξDab(CH2SO3H) = NC(CCNCS(=O)(=O)O)C(=O)O; Heptanoyl(6-Me) = CC(C)CCCCC(=O)*; Dab = NCC[CH](N)C(=O)O
Outcome codes: active, inactive

compound: C[C@]12CC[C@@H]3c4cc(OC(F)F)c(OS(N)(=O)=O)cc4CC[C@H]3[C@@H]1CC[C@@H]2OS(N)(=O)=O
qualitative-label: inactive

compound: NC1CCCCC1N.O=[Se]([O-])[O-].[Pt+4] (configuration not stated)
qualitative-label: inactive

compound: COc1ccc(Sc2nc3cc(N)cc(N)c3nc2-c2ccccc2)cc1
qualitative-label: inactive

compound: COc1ccc(Cn2cc3c(c2-c2ccccc2)CCc2cnoc2-3)cc1OC
qualitative-label: inactive

compound: COc1cc2ncnc(Nc3cccc(Cl)c3F)c2cc1OC(=O)N1CCN(C)C[C@H]1C
qualitative-label: inactive

compound: C[C@@H](NC(=O)/C(C#N)=C/c1ccc([N+](=O)[O-])cc1)c1ccccc1
qualitative-label: inactive

compound: COc1cccc(/C=N/NC(=O)c2ccccc2N2CCCC2)c1O
qualitative-label: inactive

compound: N#Cc1c(N2CCOCC2)nc(=S)[nH]c1-c1ccccc1
qualitative-label: inactive

compound: COc1cc(/C(=C2/O[C@@H]([C@H]3COC(C)(C)O3)[C@H]3OC(C)(C)O[C@@H]23)c2ccc3ccccc3c2)cc(OC)c1OC
qualitative-label: inactive

compound: CCC(C)C1NC(=O)C(CCNCS(=O)(=O)O)NC(=O)C(NC(=O)C(CCNCS(=O)(=O)O)NC(=O)C(NC(=O)C(CCNCS(=O)(=O)O)NC(=O)CCCCC(C)C)C(C)O)CCNC(=O)C(C(C)O)NC(=O)C(CCNCS(=O)(=O)O)NC(=O)C(CCNCS(=O)(=O)O)NC(=O)C(C(C)CC)NC1=O (configuration not stated) ({Heptanoyl(6-Me)}-[ξDab(CH2SO3H)]T[ξDab(CH2SO3H)][Dab][ξDab(CH2SO3H)]II[ξDab(CH2SO3H)][ξDab(CH2SO3H)]T; lactam 4-C; configuration not given here)
qualitative-label: inactive

compound: Cc1cc(O)cc(C)c1/C=C/c1cncc(C(N)=O)c1
qualitative-label: inactive

compound: Cc1ccc2c(c1)c(Sc1ccc(C(=O)NO)cc1)c1n2CN(C)CC1
qualitative-label: inactive

compound: O=C(/C(=C/c1ccc([N+](=O)[O-])cc1)SCc1ccc(Cl)cc1)c1ccc(F)cc1
qualitative-label: inactive

compound: CCCCCCCCCCCCSC1=C(Cl)C(=O)C(OC)=C(OC)C1=O
qualitative-label: inactive

compound: COc1cc(C(=O)N2CCN(c3ccccc3)CC2)c2ccccc2n1
qualitative-label: active

compound: C[C@]12CC[C@@H]3c4cc(O)c(O)cc4CC[C@H]3[C@@H]1CC[C@@H]2O
qualitative-label: inactive

compound: Cn1cc(C2=C(c3c4n(c5ccccc35)CCC(CN)C4)C(=O)NC2=O)c2ccccc21 (configuration not stated)
qualitative-label: inactive

compound: C#CCN(Cc1nc2cc(C(F)(F)F)ccc2nc1-c1ccccc1)c1ccc(C)cc1
qualitative-label: inactive

compound: N#C[Se]CCN1C(=O)C2C(C1=O)[C@H]1C=C[C@@H]2S1 (some centres not stated)
qualitative-label: inactive

compound: C=C1C(=O)O[C@H]2[C@H]1CC/C(C=Nc1c(N)cc(C(F)(F)F)cc1C(F)(F)F)=C\CC[C@@]1(C)O[C@@H]21
qualitative-label: inactive

compound: CC(C)(C)[Si](C)(C)OC1[C@@H](O[Si](C)(C)C(C)(C)C)[C@@H](CNC(=O)NC(=O)CF)O[C@H]1n1cnc2c(NC(=O)Nc3ccccc3)ncnc21 (some centres not stated)
qualitative-label: inactive

compound: COc1ccc2c(c1)[nH]c(=O)c1c3ccccc3cn21
qualitative-label: active
